Test system Vero E6 EGFP cells, CC50 listed for each of the compounds.

| COMPOUND | BOUND_OPERATOR | CC50 (µM) |
| --- | --- | --- |
| O=C(c1c2ccccc2cc2ccccc12)N1CCC(N2CCC[C@@H](C(=O)N3CCOCC3)C2)CC1 [CP-640186 (hydro-chloride)] | = | 10.9 |
| Nc1ncnc2c1ncn2[C@@H]1CC[C@@H](O)[C@H]1O | = | 15.7 |
| Nc1c[nH]c(=O)c2cc(-c3ccccc3)sc12 | > | 33 |
| OCCNC1CCCc2c1[nH]c1ccc(-c3ccccc3)cc21 (stereo not shown) | > | 33 |

###

Form field: IC50 (one value per entry).
- Test system: SARS-CoV-2

| COMPOUND | MEASURED_ON | BOUND_OPERATOR | IC50 [µM] |
| --- | --- | --- | --- |
| CNCc1ccc(-c2cc(-c3nc(-c4ccc(S(=O)(=O)C(C)C)cc4)cnc3N)on2)cc1 | SARS-CoV-2 | < | 20 |
| CCN(CC)c1ccc2cc(-c3nc4ccccc4[nH]3)c(=O)oc2c1 | SARS-CoV-2 | = | 0.36 |
| COc1cc(NCc2ccc3nc(N)nc(N)c3c2C)cc(OC)c1OC [Trimetrexate] | SARS-CoV-2 | < | 20 |
| CCCCCCCCCCCCCCOc1ccc(C(=O)O)o1 | SARS-CoV-2 | = | 4.04 |
| COc1cc(C[C@H]2c3cc(OC)c(OC)cc3CCN2C)c(Oc2cc3c(cc2OC)-c2c(OC)c(OC)cc4c2[C@H](C3)N(C)CC4)cc1OC | SARS-CoV-2 | = | 3.87 |

###

- Test system: SARS-CoV-2
- SETTINGS: ratio of cytotoxic to anti-cytopathic effects

| COMPOUND | SI (CC50/IC50) |
| --- | --- |
| CN1CCN(C2CCN(C(=O)Nc3cc(Oc4ccc(NC(=O)C5(C(=O)Nc6ccc(F)cc6)CC5)c(F)c4)ccn3)CC2)CC1 [Golvatinib (E7050), Golvatinib] | 5.60 |
| CNCc1ccc(-c2cc(-c3nc(-c4ccc(S(=O)(=O)C(C)C)cc4)cnc3N)on2)cc1 | 3.75 |
| Nc1cc2c3ccccc3ccc2c2ccccc12 | 2.84 |
| Cc1cc(O)c2c(=O)c3c(O)cc(O)c4c5c(O)cc(O)c6c(=O)c7c(O)cc(C)c8c1c2c(c34)c(c78)c65 | 5.24 |
| Nc1c[nH]c(=O)c2cc(-c3ccccc3)sc12 | 6.27 |
| O=C1OC2(c3ccc(O)cc3Oc3cc(O)ccc32)c2ccccc21 | 49.25 |
| CCCCCCCCCCCCCCOc1ccc(C(=O)O)o1 | 8.17 |
| COc1cc(C[C@H]2c3cc(OC)c(OC)cc3CCN2C)c(Oc2cc3c(cc2OC)-c2c(OC)c(OC)cc4c2[C@H](C3)N(C)CC4)cc1OC | 8.53 |
| CCN1CCN(Cc2ccc(-c3cc4c(N[C@H](C)c5ccccc5)ncnc4[nH]3)cc2)CC1 | 8.38 |
| CC(=O)[C@]1(N)Cc2c(O)c3c(c(O)c2[C@@H](O[C@H]2C[C@H](O)[C@H](O)CO2)C1)C(=O)c1ccccc1C3=O | 100.00 |
